Test system: C32 (Melanoma)
test_details: combination Emax (second highest fraction inhibited in the dose matrix, 72 h); higher = more inhibition; extreme values may be limits of the assay
quantity_name: combination Emax

NC1(C(=O)N[C@@H](CCO)c2ccc(Cl)cc2)CCN(c2ncnc3[nH]ccc23)CC1 [Capivasertib] + CC(=O)c1c(C)c2cnc(Nc3ccc(N4CCNCC4)cn3)nc2n(C2CCCC2)c1=O [Palbociclib] (first compound max 10 µM, 7x7, partner max 10 µM) :: 0.413
C=CCn1c(=O)c2cnc(Nc3ccc(N4CCN(C)CC4)cc3)nc2n1-c1cccc(C(C)(C)O)n1 [AZD1775] + CCc1c2c(nc3ccc(O)cc13)-c1cc3c(c(=O)n1C2)COC(=O)[C@]3(O)CC [SN-38] (first compound max 1 µM, partner max 0.3 µM) :: 0.69
Cc1nc(-c2cn3c(n2)-c2ccc(-c4cnn(C(C)(C)C(N)=O)c4)cc2OCC3)n(C(C)C)n1 [Taselisib] + O=C(Nc1ccc2[nH]nc(-c3ccncc3)c2c1)[C@@H]1CCN(CC(=O)N2CCN(c3ccc(-c4ncccn4)cc3)CC2)C1 [SCH772984] (first compound max 10 µM, 7x7, partner max 5 µM) :: 1
COc1cc2c(cc1OCCCCCOc1cc3c(cc1OC)C(=O)N1C=C(C)C[C@H]1C=N3)N=C[C@@H]1CC(C)=CN1C2=O [SG3199] + O=C(c1cc(Cc2n[nH]c(=O)c3ccccc23)ccc1F)N1CCN(C(=O)C2CC2)CC1 [Olaparib] (first compound max 0.001 µM, 7x7, partner max 10 µM) :: 0.0494
CS(=O)(=O)CCNCc1ccc(-c2ccc3ncnc(Nc4ccc(OCc5cccc(F)c5)c(Cl)c4)c3c2)o1 [Lapatinib] + NC1(c2ccc(-c3nc4ccn5c(=O)[nH]nc5c4cc3-c3ccccc3)cc2)CCC1 [MK-2206] (first compound max 10 µM, 7x7, partner max 10 µM) :: 0.635
Cc1c2c(nn1C)CSCc1cc(n(C)n1)CSc1cc(c3ccccc3c1)OCCCc1c(C(=O)O)n(C)c3c-2c(Cl)ccc13 [AZD5991] + Cc1cc2ncnn2cc1Nc1ncc2c(n1)n(C1CCOCC1)c(=O)n2C [AZD7648] (first compound max 1 µM, 7x7, partner max 10 µM) :: 0.198
COc1nnc2ccc(N3CCC(c4ccc(OCCN5CCN(C)C(=O)[C@H]5C)cc4)CC3)nn12 [AZD5153] + C=CCn1c(=O)c2cnc(Nc3ccc(N4CCN(C)CC4)cc3)nc2n1-c1cccc(C(C)(C)O)n1 [AZD1775] (first compound max 1 µM, partner max 1 µM) :: 0.354
